Reference for the values: paper PMC9331544

Experiment: Alamar Blue cell viability/cytotoxicity assay
Format: cell-based, human
Conditions: human, IC50 of pesticide-induced cytotoxicity
EXPERIMENTAL_READOUT: IC50 at 48 h (µM)
Give just the numeric value; µM need not be written.

Req: Check the records and state IC50 at 48 h for `O=[N+]([O-])NC1=NCCN1Cc1ccc(Cl)nc1`
Resp: 832

----------
Experiment: Alamar Blue cell viability/cytotoxicity assay
Type: cell-based, human
Conditions: human
EXPERIMENTAL_READOUT: IC50 at 48 h (µM)
Give just the numeric value; µM need not be written.

Req: Check the records and state IC50 at 48 h for O=[N+]([O-])NC1=NCCN1Cc1ccc(Cl)nc1 [Imidacloprid, imidacloprid]
Resp: 620

----------
Test: Alamar Blue cell viability/cytotoxicity assay
Type: cell-based, human
Conditions: human, HepG2 cells; HepG2, 48 h exposure, mean ± SD (n = 4); read-out: IC50 of pesticide-induced cytotoxicity
EXPERIMENTAL_READOUT: IC50 at 48 h (µM)
Give just the numeric value; µM need not be written.

Req: Check the records and state IC50 at 48 h for C=CCOC(Cn1ccnc1)c1ccc(Cl)cc1Cl (stereo not shown)
Resp: 47
